Where do these numbers come from? They come from the RNAGym collection of RNA variant scans (doi:10.1126/science.aae0568).

B1: tRNA (parent)
chain: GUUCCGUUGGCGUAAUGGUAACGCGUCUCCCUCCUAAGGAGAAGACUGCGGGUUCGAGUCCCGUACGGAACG

Variants of: B1
Test: yeast fitness relative to wild type (ratio to wild type); higher = fitter; tRNA-Arg(CCU), competitive growth, 37 C, YPD
This sample holds only a part of the variants without activity.
Below: a set of entries, each annotated with reported yeast fitness.

Record excerpt, results attached:
| mutationKey | yeast fitness |
| --- | --- |
| C4U C11G A20G C34U | ≤ 0.5 |
| C49U A65G C66G | ≤ 0.5 |

Q: Which value of yeast fitness has been reported for G6A U13C A14U C30U A69U in the records?
A: ≤ 0.5

Q: Next up: A14U U26A G58C
A: ≤ 0.5

Q: Next up: C4G C5A A21U C34G
A: ≤ 0.5

Q: Next up: C4U A14G C34G
A: ≤ 0.5
